Origin of values: patent US9845319B2

- tested-on: human RORγt ligand binding domain (RORγt LBD) (Homo sapiens, UniProt P51449)
- Construct: His-tag (N); TurboTEV protease cleavage site (ENLYFQG) (N)
- Sequence (P51449 with tags, fused parts or gaps): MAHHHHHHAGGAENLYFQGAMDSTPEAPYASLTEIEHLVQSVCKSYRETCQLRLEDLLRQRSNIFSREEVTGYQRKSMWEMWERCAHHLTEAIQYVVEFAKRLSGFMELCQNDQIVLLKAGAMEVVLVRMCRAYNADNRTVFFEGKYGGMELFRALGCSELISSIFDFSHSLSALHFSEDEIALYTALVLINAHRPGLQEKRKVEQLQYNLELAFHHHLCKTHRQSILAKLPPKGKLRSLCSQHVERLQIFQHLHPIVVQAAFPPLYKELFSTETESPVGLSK
- measurement-description: RORγt ThermoFluor assay
- particulars: estimated from thermal shift concentration response
pKd: −log10 of the molar value.
experimental-endpoint: pKd

{"compound": "CC[C@H](NS(=O)(=O)c1ccc(-c2sc(-c3noc(CC(C)(C)C(=O)O)n3)nc2C(=O)N2CCC(F)(F)CC2)c(OC(F)(F)F)c1)C(F)(F)F [Example 10/2]", "experimental-endpoint": "pKd", "recorded-value": 10.40}
{"compound": "CC1CCN(C(=O)c2nc(-c3nnc(C(N)=O)o3)sc2-c2ccc(S(=O)(=O)N[C@@H](C)C(F)(F)F)c3ccccc23)CC1 [Example 5]", "experimental-endpoint": "pKd", "recorded-value": 7.43}
{"compound": "CC[C@H](NS(=O)(=O)c1ccc(-c2sc(-c3nnc(C(C)(C)O)o3)nc2C(=O)N2CC(F)(F)C2)c(Cl)c1)C(F)(F)F [Example 6/13]", "experimental-endpoint": "pKd", "recorded-value": 6.23}

###

Reported IC50 values follow for various compounds
- tested-on: full-length human RORγt (Homo sapiens)
- Construct: expressed in transfected cells; host or cells: HEK293T, transiently transfected with pCMV-BD-ROR
- measurement-description: RORγt (full-length human) Reporter Assay, Conditions A
- Assay type: cell-based
- particulars: HEK293T cells, GAL4-DBD-RORγt, luciferase; read-out: RORγt (FL) Reporter Assay A, IC50

{"compound-string": "C[C@H](NS(=O)(=O)c1ccc(-c2sc(-c3nnc(CC(C)(C)O)o3)nc2C(=O)N2CCC(F)(F)C2)c(Cl)c1Cl)C(F)(F)F", "tested-on": "full-length human RORγt (Homo sapiens)", "IC50 [nM]": 57}
{"compound-string": "CC(C)(O)Cc1nnc(-c2nc(C(=O)N3CCC(F)CC3)c(-c3ccc(C(O)(C(F)(F)F)C(F)(F)F)c(Cl)c3Cl)s2)o1", "tested-on": "full-length human RORγt (Homo sapiens)", "IC50 [nM]": 50}
{"compound-string": "CC[C@H](NS(=O)(=O)c1ccc(-c2sc(-c3nnc(C(C)(C)O)o3)nc2C(=O)N2CCC(F)(F)CC2)c(C(F)F)c1F)C(F)(F)F", "tested-on": "full-length human RORγt (Homo sapiens)", "IC50 [nM]": 27}
{"compound-string": "CC(C)(O)c1nnc(-c2nc(C(=O)N3CCC(F)(F)CC3)c(-c3ccc(CC(O)(C(F)(F)F)C(F)(F)F)c(Cl)c3)s2)o1", "tested-on": "full-length human RORγt (Homo sapiens)", "IC50 [nM]": 83}
{"compound-string": "C[C@H](NS(=O)(=O)c1ccc(-c2sc(-c3nnc(C(C)(C)O)o3)nc2C(=O)N2CCC(F)(F)C2)c(Cl)c1Cl)C(F)(F)F", "tested-on": "full-length human RORγt (Homo sapiens)", "IC50 [nM]": 38}
{"compound-string": "CCN(CC)C(=O)c1nc(-c2nnc(CC(C)(C)O)o2)sc1-c1ccc(S(=O)(=O)N[C@@H](C)C(F)(F)F)c(Cl)c1Cl", "tested-on": "full-length human RORγt (Homo sapiens)", "IC50 [nM]": 27}
{"compound-string": "CC[C@H](NS(=O)(=O)c1ccc(-c2sc(-c3nnc(C(C)(C)O)o3)nc2C(=O)N(CC)CC)c(Cl)c1F)C(F)(F)F", "tested-on": "full-length human RORγt (Homo sapiens)", "IC50 [nM]": 43}
{"compound-string": "CC[C@H](NS(=O)(=O)c1ccc(-c2sc(-c3nnc(C(C)(C)O)o3)nc2C(=O)N2CCC(F)(F)CC2)c(F)c1C(F)F)C(F)(F)F", "tested-on": "full-length human RORγt (Homo sapiens)", "IC50 [nM]": 38}
{"compound-string": "C[C@H]1CCCN1C(=O)c1nc(-c2nnc(C(C)(C)O)o2)sc1-c1ccc(OCC(O)(C(F)(F)F)C(F)(F)F)cc1C(F)(F)F", "tested-on": "full-length human RORγt (Homo sapiens)", "IC50 [nM]": 130}
{"compound-string": "CCCN(C)C(=O)c1nc(-c2nnc(C(C)(C)O)o2)sc1-c1ccc(S(=O)(=O)N[C@@H](C)C(F)(F)F)c(Cl)c1Cl", "tested-on": "full-length human RORγt (Homo sapiens)", "IC50 [nM]": 72}
{"compound-string": "CC[C@H](NS(=O)(=O)c1ccc(-c2sc(-c3noc(CC(C)(C)O)n3)nc2C(=O)N2CCC(F)(F)C2)c(C(F)F)c1F)C(F)(F)F", "tested-on": "full-length human RORγt (Homo sapiens)", "IC50 [nM]": 120}
{"compound-string": "C[C@H](NS(=O)(=O)c1ccc(-c2sc(-c3noc(C(C)(C)O)n3)nc2C(=O)N2CCC(F)CC2)c(C(F)F)c1F)C(F)(F)F", "tested-on": "full-length human RORγt (Homo sapiens)", "IC50 [nM]": 120}
{"compound-string": "CC(C)(O)c1nnc(-c2nc(C(=O)N3CC(F)(F)CC3(C)C)c(-c3ccc(S(=O)(=O)NC4(C(F)F)CC4)c(F)c3Cl)s2)o1", "tested-on": "full-length human RORγt (Homo sapiens)", "IC50 [nM]": 1600}
{"compound-string": "COC1(c2nnc(-c3nc(C(=O)N4CCC(F)(F)CC4)c(-c4ccc(S(=O)(=O)N[C@@H](C)C(F)(F)F)c(Cl)c4Cl)s3)o2)CC1", "tested-on": "full-length human RORγt (Homo sapiens)", "IC50 [nM]": 11}
{"compound-string": "C[C@H](NS(=O)(=O)c1ccc(-c2sc(-c3cc(C(C)(C)O)on3)nc2C(=O)N2CCC(F)CC2)c(Cl)c1Cl)C(F)(F)F", "tested-on": "full-length human RORγt (Homo sapiens)", "IC50 [nM]": 21}
{"compound-string": "CC[C@H](NS(=O)(=O)c1ccc(-c2sc(-c3nnc(C(C)(C)O)o3)nc2C(=O)N(CC)CC)c(Cl)c1Cl)C(F)(F)F", "tested-on": "full-length human RORγt (Homo sapiens)", "IC50 [nM]": 13}
{"compound-string": "C[C@H](NS(=O)(=O)c1ccc(-c2sc(-c3nnc(C(C)(C)O)[nH]3)nc2C(=O)N2CCC(F)(F)CC2)c(Cl)c1Cl)C(F)(F)F", "tested-on": "full-length human RORγt (Homo sapiens)", "IC50 [nM]": 61}
{"compound-string": "C[C@H](NS(=O)(=O)c1ccc(-c2sc(-c3nnc(C(C)(C)O)o3)nc2C(=O)N2CCC(F)(F)CC2)c(C(F)F)c1Cl)C(F)(F)F", "tested-on": "full-length human RORγt (Homo sapiens)", "IC50 [nM]": 73}
{"compound-string": "CC1CCN(C(=O)c2nc(-c3nnc(C(C)(C)O)o3)sc2-c2ccc(S(=O)(=O)N[C@@H](C)C(F)(F)F)c3ccccc23)CC1", "tested-on": "full-length human RORγt (Homo sapiens)", "IC50 [nM]": 19}
{"compound-string": "CC[C@H](NS(=O)(=O)c1ccc(-c2sc(-c3nnc(CC(C)(C)C#N)o3)nc2C(=O)N2CCC(F)CC2)c(Cl)c1Cl)C(F)(F)F", "tested-on": "full-length human RORγt (Homo sapiens)", "IC50 [nM]": 10}
{"compound-string": "C[C@H](NS(=O)(=O)c1ccc(-c2sc(-c3cnn[nH]3)nc2C(=O)N2CCCC[C@@H]2C)c(Cl)c1Cl)C(F)(F)F", "tested-on": "full-length human RORγt (Homo sapiens)", "IC50 [nM]": 14}
{"compound-string": "CC[C@H](NS(=O)(=O)c1ccc(-c2sc(-c3nnn[nH]3)nc2C(=O)N2CCCC[C@@H]2C)c(Cl)c1Cl)C(F)(F)F", "tested-on": "full-length human RORγt (Homo sapiens)", "IC50 [nM]": 1900}
{"compound-string": "CC[C@H](NS(=O)(=O)c1ccc(-c2sc(-c3cccc(CC(C)(C)C(=O)O)n3)nc2C(=O)N2CCC(F)(F)CC2)c(C(F)F)c1F)C(F)(F)F", "tested-on": "full-length human RORγt (Homo sapiens)", "IC50 [nM]": 8}
{"compound-string": "CN(CC(F)(F)F)S(=O)(=O)c1ccc(-c2sc(-c3nnc(C(C)(C)O)o3)nc2C(=O)N2CCC(F)(F)CC2)c(Cl)c1F", "tested-on": "full-length human RORγt (Homo sapiens)", "IC50 [nM]": 2300}
